Where these numbers come from: PubChem BioAssay (NCI)

- Test system: SNB-19 CNS
- protocolSummary: NCI-60 one-dose screen, 48 h (100 = growth as untreated, 0 = no growth, -100 = all killed)
- conditionSummary: 10 µM unless noted
The panel holds about 83,000 compounds, 20% with a hit somewhere; the sample as a whole holds those more often.
Note to self: use condition met only for growth readings below 80%; a reading exactly at 80% still gets condition not met.

Incoming: For this compound, is growth lower than 80%? NS(=O)(=O)c1ccc(CCn2c(SCC(=O)N/N=C/c3cccnc3)nc3ccccc3c2=O)cc1
Outgoing: condition not met

Incoming: For this compound, is growth lower than 80%? O=P(O)(O)C(O)(Cc1cccnc1)P(=O)(O)O
Outgoing: condition not met

Incoming: For this compound, is growth lower than 80%? Cc1cccc2nc3ccccc3c(Nc3ccc(NS(C)(=O)=O)cc3)c12
Outgoing: condition met

Incoming: For this compound, is growth lower than 80%? c1cc2c(cc1-c1cnc3nonc3n1)OCO2
Outgoing: condition not met

Incoming: For this compound, is growth lower than 80%? CS(=O)(=O)c1ccc(C(=O)N/N=C/c2ccccc2Cl)cc1
Outgoing: condition not met

Incoming: For this compound, is growth lower than 80%? O=C(C(=O)N1CCCC1)c1cn(CCCn2cc(C(=O)C(=O)N3CCCC3)c3cc(Br)ccc32)c2ccc(Br)cc12
Outgoing: condition not met

Incoming: For this compound, is growth lower than 80%? CN(C)c1ccc(C2(Cl)c3ccccc3N(C)c3ccccc32)cc1
Outgoing: condition met

Incoming: For this compound, is growth lower than 80%? S=C(Nc1ccc(Cl)cc1)Nc1ccc(Cl)cc1 (tested in a mixture with another compound)
Outgoing: condition met

Incoming: For this compound, is growth lower than 80%? COc1cnc2c(c1)C(=O)c1c-2n(CCCN2CCCC2)c(=O)c2cc(Cl)ccc12
Outgoing: condition met

Incoming: For this compound, is growth lower than 80%? CC(C)c1nc2ccccc2n1CC(=O)N/N=C/c1cccc(O)c1
Outgoing: condition not met

Incoming: For this compound, is growth lower than 80%? CC(=O)c1ccc(N2C(=O)c3ccc(Oc4ccccc4)cc3C2=O)cc1
Outgoing: condition not met

Incoming: For this compound, is growth lower than 80%? CCN(CC)CCNC(=O)C(F)(F)C(F)(F)C(F)(F)F
Outgoing: condition not met

Incoming: For this compound, is growth lower than 80%? CN1C(=O)N(C)C2C1NN=c1s/c(=C\c3ccc(C(F)(F)F)cc3)c(=O)n12 (stereo unspecified)
Outgoing: condition met

Incoming: For this compound, is growth lower than 80%? O=c1c2cc(Br)cc(Br)c2nc(-c2ccc(Cl)cc2)n1/N=C/c1cccc(F)c1
Outgoing: condition met

Incoming: For this compound, is growth lower than 80%? COc1ccc(CNc2c3ccccc3nc3ccccc23)cc1F
Outgoing: condition met

Incoming: For this compound, is growth lower than 80%? Cc1nn(-c2cccc(Cl)c2)c(C)c1N=Nc1ccc(Br)cc1
Outgoing: condition not met

Incoming: For this compound, is growth lower than 80%? O=C(c1ccccc1)C1OC1C(=O)c1ccccc1 (stereo unspecified)
Outgoing: condition not met

Incoming: For this compound, is growth lower than 80%? O=C(Nc1ccncc1)C(=O)c1cn(S(=O)(=O)c2cccc(Cl)c2F)c2ccccc12
Outgoing: condition not met

Incoming: For this compound, is growth lower than 80%? CCCCc1nc(Cl)c(C2CC(c3ccc(S(N)(=O)=O)cc3)=NN2c2ccc(C#N)cc2)[nH]1 (stereo unspecified)
Outgoing: condition not met

Incoming: For this compound, is growth lower than 80%? COCc1nc(NS(=O)(=O)c2ccc(N)cc2)nc(C)c1Br
Outgoing: condition not met
